The reported measurements were obtained from ChEMBL document CHEMBL1681672.

Test system: MCF7
Test: Antiproliferative activity against human MCF7 cells after 3 days by sulforhodamine B assay
Assay type: functional
Conditions: MCF7, 72 h, read-out: ED50 (the source's name)
Give EC50 for every item shown.
Give bare numbers, in µM.

• CCCCC1=C(OC)C(CCCC)(CCCC)C(=O)/C(=C(O)\C=C\c2ccccc2)C1=O = 4.4
• COC1=C(CC(C)C)C(=O)/C(=C(O)/C=C/c2ccccc2)C(=O)C1(CC(C)C)CC(C)C = 3.7
• CCCC1=C(OC)C(CCC)(CCC)C(=O)/C(=C(O)\C=C\c2ccc(I)cc2)C1=O = 1.8
• CCCC1=C(OCCC(C)C)C(CCC)(CCC)C(=O)/C(=C(O)\C=C\c2ccccc2)C1=O = 9.1
• COC1=C(CC=C(C)C)C(=O)/C(=C(O)/C=C/c2ccccc2)C(=O)C1(CC=C(C)C)CC=C(C)C = 8.2

Each compound below has a reported value. Please supply its EC50.
1. CC[C@]1(O)C[C@H]2CN(CCc3c([nH]c4ccccc34)[C@@](C(=O)OC)(c3cc4c(cc3OC)N(C=O)[C@H]3[C@@](O)(C(=O)OC)[C@H](OC(C)=O)[C@]5(CC)C=CCN6CC[C@]43[C@@H]65)C2)C1
2. CCCC1=C(OCC)C(CCC)(CCC)C(=O)/C(=C(O)\C=C\c2ccccc2)C1=O
3. CCCOC1=C(CCC)C(=O)/C(=C(O)/C=C/c2ccccc2)C(=O)C1(CCC)CCC

**A:**
1. 0.0121
2. 2.6
3. 1.6

**Q:** Tell me the measured EC50 of CCCC1=C(OCC(C)C)C(CCC)(CCC)C(=O)/C(=C(O)\C=C\c2ccccc2)C1=O , please.
**A:** 4.4

---

Test: Antiproliferative activity against human KBVIN cells expressing P-glycoprotein after 3 days by sulforhodamine B assay
Assay type: functional
Details: 72 h, read-out: ED50 (the source's name)
pEC50: −log10 of the molar value.
Give pEC50 for every item shown.

Example results:
* COC1=C(CC(C)C)C(=O)/C(=C(O)/C=C/c2ccccc2)C(=O)C1(CC(C)C)CC(C)C | 5.09
* CC[C@]1(O)C[C@H]2CN(CCc3c([nH]c4ccccc34)[C@@](C(=O)OC)(c3cc4c(cc3OC)N(C=O)[C@H]3[C@@](O)(C(=O)OC)[C@H](OC(C)=O)[C@]5(CC)C=CCN6CC[C@]43[C@@H]65)C2)C1 | < 7.00

Now turn to the next molecule.
**Q:** Tell me the measured pEC50 of CC(=O)O[C@H]1C(=O)[C@@]2(C)[C@H]([C@H](OC(=O)c3ccccc3)[C@]3(O)C[C@H](OC(=O)[C@H](O)[C@@H](NC(=O)c4ccccc4)c4ccccc4)C(C)=C1C3(C)C)[C@]1(OC(C)=O)CO[C@@H]1C[C@@H]2O , please.
**A:** < 7.00
